Test system: MDA-MB-231
Experiment: NCI tumour cell line growth inhibition, 48 h
The source made the active and inactive calls. Cut-off read from the data, not from the text of the source: active = GI50 up to about 1.1 µM and inactive = higher.

| compoundStructure | targetSystem | GI50 |
| --- | --- | --- |
| O=C1c2cccnc2S(=O)(=O)N1c1ccc(Br)cc1 | MDA-MB-231 | > 100 µM (inactive) |
| CCOC(=O)/C(=N\Nc1ccc(-n2c(C)nc3ccc(Br)cc3c2=O)cc1)C(C)=O | MDA-MB-231 | 31.9 µM (inactive) |
| N#CC(C#N)=C/C=C/c1ccccc1[N+](=O)[O-] | MDA-MB-231 | 2.59 µM (inactive) |
| COc1cccc(CCn2c(N)c(-c3cc(Cl)cc(Cl)c3)c3ccc([N+](=O)[O-])cc3c2=O)c1 | MDA-MB-231 | 4.68 µM (inactive) |
| Cc1ccc2c(=O)c(C(=O)N(CCO)CCO)c[nH]c2n1 | MDA-MB-231 | > 100 µM (inactive) |
| COc1cc(-c2ccc(Nc3ccccc3C(=O)O)c(OC)c2)ccc1Nc1ccccc1C(=O)O | MDA-MB-231 | 13.7 µM (inactive) |

----------
System: UO-31
Test: NCI tumour cell line growth inhibition, 48 h
Calls of active or inactive are those of the source. Cut-off read from the data, not from the text of the source: active = GI50 up to about 1.1 µM and inactive = higher.
Labels: 1 (yes) = active, 0 (no) = inactive

| compound | qualitativeLabel |
| --- | --- |
| O=C(NC12CC3CC(CC(F)(C3)C1)C2)c1ccccc1 | 0 (no) |
| COc1nc2c(c(O)c(C)c(=O)n2OC2OCC(OC(C)=O)C(OC(C)=O)C2OC(C)=O)c(=O)n1C (stereo not given) | 0 (no) |
| COc1ccccc1/C=C1\S/C(=N/Nc2nc(C)c(C(C)=O)s2)NC1=O | 0 (no) |
| COc1cccc2c(=O)oc(-c3ccc(C(C)(C)C)cc3)nc12 | 0 (no) |
| O=C(O)[C@@H]1CCC(=O)N1C(c1ccc2c(c1)OCO2)c1ccc2c(c1)OCO2 | 0 (no) |
| Cc1cc2c(cc1Cl)SC(NNc1cnc3ccccc3n1)=NS2(=O)=O | 0 (no) |
| CN(C)c1ncc(-c2c[nH]c3ccccc23)nc1-c1c[nH]c2ccccc12 | 0 (no) |
| COc1cc(C2S/C(=C/c3ccccc3)C(=O)N2c2cccc(Cl)c2)cc(OC)c1OC (stereo not given) | 0 (no) |
| c1ccc(CSc2nc(N3CCOCC3)c3cn[nH]c3n2)cc1 | 0 (no) |
| O=C(COC(=O)c1cccc2c(=O)c3ccccc3[nH]c12)Nc1ccc(Cl)cc1 | 0 (no) |
| Nc1nc2c(ncn2CCCC(c2ccccc2)P(=O)(O)O)c(=O)[nH]1 (stereo not given) | 0 (no) |
| COc1cc(/C=C2\C(=O)N(c3ccccc3)C(c3ccccc3)S2(=O)=O)cc(OC)c1OC (stereo not given) | 0 (no) |
| C#CC1(O)C(COP(=O)(O)OCC2OC(n3ccc(NCCCCCCCCCCCCCCCCCC)nc3=O)C(O)C2O)OC(n2ccc(N)nc2=O)C1O (stereo not given) | 1 (yes) |
| CC(Nc1ncc2c(n1)-c1ccccc1OC2)C(=O)O (stereo not given) | 0 (no) |
| Cc1ccc(S(=NS(=O)(=O)c2ccc(C)cc2)c2ccc(C)cc2)cc1 | 0 (no) |
| NC(Cc1ccccc1)C(=O)NC(Cc1ccccc1)NC(=O)C(Cc1c[nH]c2ccccc12)C(=O)O (stereo not given) | 0 (no) |
| C/C=C\C(CC(=O)NCCc1c[nH]c2ccccc12)CC(=O)OC (stereo not given) | 0 (no) |
| CC(C)(C)OC(=O)NCCCCC(N)C(N)=O (stereo not given) | 0 (no) |
| CC(C)(Oc1ccc(-c2cccc3ccccc23)cc1)C(=O)O | 0 (no) |
| C[n+]1c2ccccc2c(CNCC(=O)O)c2ccccc21 | 0 (no) |
| FC1C2=C(SC1(F)F)C1CCC2C1 (stereo not given) | 0 (no) |
| COc1cccc(-c2c(C#N)c(N)nc3c2CCS(=O)(=O)c2ccc(C)cc2-3)c1 | 0 (no) |
| Cc1cccc(N2C(=O)C(=O)C(c3nc4ccccc4s3)/C(=N/NC(=S)NN)C2=O)c1C (stereo not given) | 0 (no) |
| CCCc1nnc2sc(COc3ccc(OCc4nn5c(CCC)nnc5s4)c(Cl)c3)nn12 | 0 (no) |
| CCC1=[N+](CC)CCN1CC | 0 (no) |
| Cc1ccc(SSCCCCCS(=O)O)cc1 | 0 (no) |
| C#C/C=C\CCCCCCCCCCCCCC/C=C\CCCCC#CC(O)C#CCCCC/C=C\CCCCCC/C=C/C(O)C#C (stereo not given) | 0 (no) |
| COc1c(C(=O)c2ccc([N+](=O)[O-])cc2)cc(C(C)(C)C)cc1C(C)(C)C | 0 (no) |
| Cc1ccc2c(c1)C1(C)OC(C=CC1=O)O2 (stereo not given) | 0 (no) |
| COc1ccc(/C=c2/sc3n(c2=O)C(c2ccccc2)C2(O)CCCCC2N=3)cc1 (stereo not given) | 0 (no) |
| CC(=O)Oc1ccc(/C=C/C(=O)O[C@@H](C(=O)O)[C@@H](OC(=O)/C=C/c2ccc(OC(C)=O)c(OC(C)=O)c2)C(=O)O)cc1OC(C)=O | 0 (no) |
| Cc1ccc(C)n1-n1c(Cc2ccccc2)n[nH]c1=O | 0 (no) |
| O=C1C=CC(=O)c2cc(Sc3ccccc3)c(=O)c(Sc3ccccc3)cc21 | 0 (no) |
| COc1ccccc1-c1cc(O)c2cc(C)cnc2n1 | 0 (no) |
| CC1(Cl)CC2C(CC1Sc1nnnn1-c1ccccc1)C2(C)C (stereo not given) | 0 (no) |

----------
Test system: NCI-H522
Assay: NCI tumour cell line growth inhibition, 48 h
Active and inactive are the calls of the source. Rule as the data show it: active = GI50 up to about 1.1 µM and inactive = higher.
Reported GI50 values for a set of compounds

| compound | GI50 |
| --- | --- |
| COc1c(C(=O)c2ccc([N+](=O)[O-])cc2)cc(C(C)(C)C)cc1C(C)(C)C | 21.5 µM (inactive) |
| COc1ccccc1-c1cc(O)c2cc(C)cnc2n1 | 17.2 µM (inactive) |
| Cc1cccc2c1CCC21OC(=O)c2c1ccc1ccccc21 (stereo not given) | > 100 µM (inactive) |
| CCSC12CC3c4cccc5c4C(CN5C(=O)c4ccccc4)CC3(O1)N(C)C2=O (stereo not given) | 25.1 µM (inactive) |
| O=[N+]([O-])c1ccc(C2CC(c3ccccc3Cl)=Nc3ccccc3[S+]2[O-])cc1 (stereo not given) | 1.15 µM (inactive) |

----------
Tested on: RPMI-8226
Assay: NCI tumour cell line growth inhibition, 48 h
Activity calls are given as the source filed them. No stated cut-off is given here; in the data, active = GI50 up to about 1.1 µM and inactive = higher.
Reported GI50 values for a set of molecules

| molecule | GI50 |
| --- | --- |
| O=C(N/N=C/c1ccccc1)c1c(-c2cccnc2)cnc2ccccc12 | > 100 µM (inactive) |
| O=c1[nH]cnc2c1ncn2[C@@H]1C[C@@H]1CO | > 10 µM (inactive) |
| COC(=O)C(=O)C(C(=O)C(=O)Nc1ccccc1C(C)=O)c1nc2ccc(C(=O)c3ccccc3)cc2nc1O (stereo unspecified) | 63.1 µM (inactive) |
| COc1cc(/C=C2\C(=O)N(c3ccccc3)C(c3ccccc3)S2(=O)=O)cc(OC)c1OC (stereo unspecified) | 17.2 µM (inactive) |
| CCCC(=O)OC1CC(n2cc(F)c(=O)[nH]c2=O)OC1COP(=O)(OCC(Cl)(Cl)Cl)OCC(Cl)(Cl)Cl (stereo unspecified) | 1.47 µM (inactive) |
| CN(C)c1ccc2c(c1)oc(=O)c1ccccc12 | 3.59 µM (inactive) |
| c1ccc(-c2cnc(-c3ccc(-c4ncc(-c5ccccc5)o4)cc3)o2)cc1 | > 100 µM (inactive) |
| C[n+]1cccc2ccc(OC(=O)c3ccccc3)cc21 | > 100 µM (inactive) |
| O=c1oc2ccccc2cc1-c1cn2c(n1)sc1ccccc12 | > 100 µM (inactive) |
| NCCCCCC(CCN)SCC1OC(n2cnc3c(N)ncnc32)C(O)C1O (stereo unspecified) | 292 µM (inactive) |
| COc1cccc(/C=C/c2cnc3ccccc3n2)c1OC | 41.8 µM (inactive) |
| CCOC(=O)/C(C#N)=N\Nc1ccc(-n2c(C)nc3ccc(Br)cc3c2=O)cc1 | 30.3 µM (inactive) |
| O=C1C(Cl)N(c2ccc([N+](=O)[O-])cc2)C1c1c[nH]c2ccccc12 (stereo unspecified) | 30.8 µM (inactive) |
| Cc1nc2c(n1C)C(=O)c1nc(CBr)[nH]c(=O)c1C2=O | > 100 µM (inactive) |
| O=Cc1ccc2c(c1)CC1(Cc3ccccc3C1)C2 | 24.8 µM (inactive) |
| COc1cccc(C2C(C(=O)Nc3cc(=O)n(C)c(=O)n3C)=C(C)NC(C)=C2C(=O)Nc2cc(=O)n(C)c(=O)n2C)c1O | 66.1 µM (inactive) |
